Cited source: PubChem BioAssay

inhibition: recorded values
# ASSAY OVERVIEW: inhibitors of the yeast RAM network, pilot screen, dse1pr::URA3 reporter, 5-FOA selection (AID 869);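 further: 0% = DMSO wells with no growth and 100% = 10 µM 1-NA-PP1 with full growth; RAM network block rescues cells from 5-FOA so hits raise OD615 growth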
# CONDITION SET: S. cerevisiae dse1pr::URA3 5-FOA growth, OD615, 2 d; at 10 µM; active compounds read high; strain carries analog-sensitive mutant Cbk1 kinase
Calls of active or inactive are those of the source.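 How the source made its calls: active means inhibition over a set limit, the all-compound mean plus 3 SD, in both replicate runs; inconclusive means over that limit in just one replicate run; inactive means at or under that limit in both runs.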

- COMPOUND: "O=C(Cn1nc(-c2ccccc2)ccc1=O)N1CCOCC1"
  inhibition: "-0.155% (inactive)"
- COMPOUND: "Cc1ccc(C)c(S(=O)(=O)NC(CC(C)C)C(=O)O)c1 (stereo not given)"
  inhibition: "1.69% (inactive)"
- COMPOUND: "CCCc1cc(C(=O)Nc2sc(C)c(CC)c2C#N)no1"
  inhibition: "1.42% (inactive)"
- COMPOUND: "COc1ccc(NC2=C(C)C(=O)CC2)cc1"
  inhibition: "0.505% (inactive)"
- COMPOUND: "Cc1cccc(-c2noc(CCc3ccccc3)n2)c1"
  inhibition: "1.13% (inactive)"
- COMPOUND: "CC1CCN(S(=O)(=O)c2ccc(NC(=O)c3cccs3)cc2)CC1"
  inhibition: "0.115% (inactive)"
- COMPOUND: "CCCCSc1nnc(C)c(=O)[nH]1"
  inhibition: "1.26% (inactive)"
- COMPOUND: "CCOC(=O)N1CCC(NC(=O)C2CCCN(Cc3nc(-c4cccc(Cl)c4)oc3C)C2)CC1 (stereo not given)"
  inhibition: "0.715% (inactive)"
- COMPOUND: "C=CCOc1cccc(C2c3c(oc4ccccc4c3=O)C(=O)N2c2ccccn2)c1 (stereo not given)"
  inhibition: "2.12% (inactive)"
- COMPOUND: "CC1(C)CC(=O)C(C=NCc2cccnc2)=C(O)C1"
  inhibition: "0.7% (inactive)"
- COMPOUND: "COc1ccc(C2CC(c3c(Cl)cccc3Cl)n3nc(N)nc3N2)cc1 (stereo not given)"
  inhibition: "2.57% (inactive)"
- COMPOUND: "O=C(CSc1nnc(-c2ccccc2Cl)o1)N1CCCCC1"
  inhibition: "0.32% (inactive)"
- COMPOUND: "COc1ccc(NC(=O)Nc2ccc(OCC(=O)N3CCOCC3)cc2)cc1OC"
  inhibition: "0.595% (inactive)"
- COMPOUND: "CC1(C)CC(=O)C2=C(C1)OC(N)=C(C#N)C21CCN(Cc2ccccc2)CC1"
  inhibition: "2.13% (inactive)"
- COMPOUND: "CCOC(=O)C1CCN(C(=O)CN(c2cccc(OC)c2)S(=O)(=O)c2ccccc2)CC1"
  inhibition: "-0.74% (inactive)"
- COMPOUND: "COc1ccc(S(=O)(=O)Cc2ccc(C(=O)N3CCN(c4ncccn4)CC3)o2)cc1"
  inhibition: "2.58% (inactive)"
- COMPOUND: "NC(=O)CCc1c[nH]c2ccccc12"
  inhibition: "2.47% (inactive)"
- COMPOUND: "COc1ccc(NC(C)=O)cc1NC(=O)CSc1nnc(-c2cccnc2)n1C"
  inhibition: "0.485% (inactive)"
- COMPOUND: "O=C(CCn1c(=O)oc2ccccc21)NCc1ccc2c(c1)OCO2"
  inhibition: "2.35% (inactive)"
- COMPOUND: "CCOC(=O)CN1CC23C=CC(O2)C(C(=O)NC2CCCCCC2)C3C1=O (stereo not given)"
  inhibition: "1.36% (inactive)"
- COMPOUND: "COc1cc(C(=O)N2CCN(C(=O)c3ccco3)CC2)cc(OC)c1OC"
  inhibition: "0.16% (inactive)"
- COMPOUND: "COc1ccc(C(c2sc3ncnn3c2O)N2CC(C)OC(C)C2)cc1OC (stereo not given)"
  inhibition: "0.55% (inactive)"
- COMPOUND: "Cc1ccccc1C(=O)NCCN=C1NS(=O)(=O)c2ccccc21"
  inhibition: "0.69% (inactive)"
- COMPOUND: "CC1(C)C(=O)OC(C(=O)c2ccccc2)C(C)(C)C1=O (stereo not given)"
  inhibition: "0.83% (inactive)"
- COMPOUND: "CC1CCC(NC(=O)Cn2cc3c(n2)CCCC3)CC1 (stereo not given)"
  inhibition: "-0.485% (inactive)"
- COMPOUND: "Cc1cc2cc(CNC(=O)Cc3cccs3)ccc2n1C"
  inhibition: "3.38% (inactive)"
- COMPOUND: "COc1ccc(CCNC(=O)CC2Oc3ccc(Cl)cc3NC2=O)cc1OC (stereo not given)"
  inhibition: "1.17% (inactive)"
- COMPOUND: "O=c1cc(CSc2nnc(-c3ccccc3)o2)c2ccccc2[nH]1"
  inhibition: "2.32% (inactive)"
- COMPOUND: "O=C(NCC1CCCO1)NC1(C(F)(F)F)Oc2ccccc2O1 (stereo not given)"
  inhibition: "1.9% (inactive)"
- COMPOUND: "CSC1=NCCN1C(=O)COc1ccc2ccccc2c1"
  inhibition: "2.77% (inactive)"
- COMPOUND: "Cc1ccc(-n2nc3ccc(N)cc3n2)cc1"
  inhibition: "2.38% (inactive)"
- COMPOUND: "Cc1nn(C(=O)CN2C(=O)c3ccccc3C2=O)c(C)c1Br"
  inhibition: "0.84% (inactive)"
- COMPOUND: "Cc1ccc(O)c(-c2cc(C(F)(F)C(F)F)nc(-c3ccccc3)n2)c1"
  inhibition: "2.58% (inactive)"
- COMPOUND: "COc1ccc(CCNC(=O)c2c(-c3ccccc3)noc2C)cc1OC"
  inhibition: "2.2% (inactive)"
- COMPOUND: "COc1cc(Br)cc(-c2nc3c(c(=O)[nH]c(=O)n3Cc3ccccc3)n2C)c1O"
  inhibition: "2.02% (inactive)"
- COMPOUND: "COC(=O)c1cc(NC(=O)c2nccnc2C(=O)O)cc(C(=O)OC)c1"
  inhibition: "-0.12% (inactive)"
- COMPOUND: "CCOC(=O)NC(C(F)(F)F)(C(F)(F)F)P(=O)(c1ccccc1)c1ccccc1"
  inhibition: "0.93% (inactive)"
- COMPOUND: "CCOc1ccc(C2c3c(oc4cc(C)c(C)cc4c3=O)C(=O)N2CCCN(C)C)cc1OC (stereo not given)"
  inhibition: "-0.13% (inactive)"
- COMPOUND: "CCOC(=O)N1CCN(C(=O)C2CCN(Cc3nc(-c4ccccc4C)oc3C)CC2)CC1"
  inhibition: "0.75% (inactive)"
- COMPOUND: "CCOC(=O)Cc1csc(NC(=O)c2c(-c3ccccc3)noc2C)n1"
  inhibition: "-0.185% (inactive)"
- COMPOUND: "O=C(Nc1ccccc1F)C1CCCN(S(=O)(=O)c2cccc3cccnc23)C1 (stereo not given)"
  inhibition: "1.49% (inactive)"
- COMPOUND: "COc1ccc(C2(O)CCN(C(=O)Cc3cccnc3)CC2)cc1"
  inhibition: "1.03% (inactive)"
- COMPOUND: "Cc1ccc2oc(=O)c3cnn(CC(=O)NCCN(C)C)c3c2c1"
  inhibition: "0.365% (inactive)"
- COMPOUND: "COC(=O)c1ccccc1NS(=O)(=O)c1cn(C)c(=O)n(C)c1=O"
  inhibition: "0.585% (inactive)"
- COMPOUND: "O=C1CN(C(=O)COC(=O)C2CC(=O)N(Cc3ccco3)C2)c2ccccc2N1 (stereo not given)"
  inhibition: "1.06% (inactive)"
